- measurement.target: human MCH-1R (human, UniProt Q99705 1-353)
- Sequence (Q99705 whole entry): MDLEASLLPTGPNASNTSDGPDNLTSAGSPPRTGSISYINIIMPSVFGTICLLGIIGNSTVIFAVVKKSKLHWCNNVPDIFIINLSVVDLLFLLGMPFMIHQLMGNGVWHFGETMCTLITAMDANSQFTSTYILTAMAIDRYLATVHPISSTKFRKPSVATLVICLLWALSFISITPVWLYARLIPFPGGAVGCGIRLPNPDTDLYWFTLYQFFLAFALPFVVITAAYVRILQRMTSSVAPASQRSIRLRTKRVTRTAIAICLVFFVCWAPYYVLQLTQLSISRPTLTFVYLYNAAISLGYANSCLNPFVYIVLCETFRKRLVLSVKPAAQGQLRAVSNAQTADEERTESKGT
- method.description: cell-based or functional assay
Positions of bridges follow the written chain, without caps; N, C: chain ends.
recorded.endpoint: Selectivity 2/1 (MCH-2R/MCH-1R EC50 activity ratio)

P: Ac-RCMLLRVYRPC-NH2 (disulfide 2-11 (inferred)) [SEQ. ID. NO. 17 (Leu^10 analog of Ac-hMCH(6-16)-NH2)]
Q: Ac-RCMLFRVYRPC-NH2 (disulfide 2-11 (inferred)) [SEQ. ID. NO. 20 (Phe^10 analog of Ac-hMCH(6-16)-NH2)]
Hi, I'm comparing two records. Which one has the lower Selectivity 2/1 (MCH-2R/MCH-1R EC50 activity ratio), P or Q ? Answer by quoting the chosen item's label.
Q
(Q: 0.75 ratio, P: 1.8 ratio)
